Data origin, for the record: patent US8129371B2

# System under test: PI3K (Homo sapiens, UniProt P48736)
# Construct: PI3 Kinase γ IC50; other: PI3 Kinase γ; other: PI3 Kinase γ isoform, fluorescence polarization
# Sequence (P48736 whole entry, canonical isoform): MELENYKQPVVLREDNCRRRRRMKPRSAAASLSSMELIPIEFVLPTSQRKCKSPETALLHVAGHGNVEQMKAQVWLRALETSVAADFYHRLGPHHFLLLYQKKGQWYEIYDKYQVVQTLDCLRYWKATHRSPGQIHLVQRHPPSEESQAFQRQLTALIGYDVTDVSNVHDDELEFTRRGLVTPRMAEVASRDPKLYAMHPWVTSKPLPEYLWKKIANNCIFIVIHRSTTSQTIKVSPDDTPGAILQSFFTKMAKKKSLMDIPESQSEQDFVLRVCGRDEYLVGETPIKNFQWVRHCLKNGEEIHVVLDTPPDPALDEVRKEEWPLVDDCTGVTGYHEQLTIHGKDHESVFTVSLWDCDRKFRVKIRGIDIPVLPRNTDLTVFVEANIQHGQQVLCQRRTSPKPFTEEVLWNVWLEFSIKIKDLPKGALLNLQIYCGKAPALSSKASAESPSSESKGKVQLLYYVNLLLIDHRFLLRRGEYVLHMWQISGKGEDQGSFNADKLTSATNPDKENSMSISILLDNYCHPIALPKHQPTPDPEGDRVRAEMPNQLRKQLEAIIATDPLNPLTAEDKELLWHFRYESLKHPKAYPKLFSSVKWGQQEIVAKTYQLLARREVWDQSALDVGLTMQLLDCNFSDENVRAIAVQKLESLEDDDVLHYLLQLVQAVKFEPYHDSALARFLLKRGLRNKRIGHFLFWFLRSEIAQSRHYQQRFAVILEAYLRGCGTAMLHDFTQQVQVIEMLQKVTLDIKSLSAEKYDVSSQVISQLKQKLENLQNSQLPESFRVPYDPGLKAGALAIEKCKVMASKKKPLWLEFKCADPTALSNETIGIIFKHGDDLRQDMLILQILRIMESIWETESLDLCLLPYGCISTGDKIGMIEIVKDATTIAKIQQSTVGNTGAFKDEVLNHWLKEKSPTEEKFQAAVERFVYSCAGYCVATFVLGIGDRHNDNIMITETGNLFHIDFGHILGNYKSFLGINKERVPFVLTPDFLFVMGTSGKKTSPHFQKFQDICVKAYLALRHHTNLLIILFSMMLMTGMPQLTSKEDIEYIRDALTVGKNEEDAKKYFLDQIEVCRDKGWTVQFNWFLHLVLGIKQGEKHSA
# Test details: Fluorescence polarization assay for PI3K
# Type: biochemical
# Run conditions: PI3 Kinase γ isoform, fluorescence polarization; read-out: PI3 Kinase γ IC50
pIC50: −log10 of the molar value.
Label TRUE when pIC50 is at or above 6; anything below gets FALSE.

Example cases with answers are listed next.
Record smiles: O=C(NCCO)Nc1ccc(-c2nc(N3CC4CCC(C3)O4)c3sccc3n2)cc1
Group: FALSE

Record smiles: CN1CCN(c2ccc(NC(=O)Nc3ccc(-c4nc(N5CC6CCC(C5)O6)c5cnn(C6CCC(=O)CC6)c5n4)cc3)cc2)CC1
Group: FALSE

Record smiles: CC(=O)N1CC2CN(c3nc(-c4ccc(NC(=O)Nc5ccncc5)cc4)nc4c3cnn4CC(F)(F)F)CC(C1)O2
Group: FALSE

Record smiles: COC(=O)N1CCC(n2ncc3c(N4C5CCC4COC5)nc(-c4ccc(NC(=O)Nc5ccncc5)cc4)nc32)CC1
Group: FALSE

Record smiles: COC(=O)N1CCC(n2ncc3c(N4C5CCC4COC5)nc(-c4ccc(NC(=O)Nc5ccc(OCCN(C)C)cc5)cc4)nc32)CC1
Group: FALSE

Record smiles: CNC(=O)Nc1ccc(-c2nc(N3CC4CCC(C3)O4)c3sc(CN4CCN(S(C)(=O)=O)CC4)cc3n2)cc1
Group: FALSE

Record smiles: CS(=O)(=O)N1CCN(Cc2cc3nc(-c4ccc(NC(=O)Nc5ccccc5)cc4)nc(N4CC5CCC(C4)O5)c3s2)CC1
Group: TRUE

Record smiles: Nc1ccc(-c2nc(N3CC4CCC(C3)O4)c3sccc3n2)cn1
Group: FALSE

Record smiles: CCn1nc(N2CCCC2)c2c(N3CC4CCC(C3)O4)nc(-c3ccc(NC(=O)Nc4cccnc4)cc3)nc21
Group: TRUE

Record smiles: O=C(Nc1ccc(-c2nc(N3CC4CCC(C3)O4)c3cnn(CC(F)(F)F)c3n2)cc1)Nc1ccc(N2CCNCC2)cc1
Group: FALSE

# input Could you please find out whether `Nc1ccc(-c2nc(N3CC4CCC(C3)O4)c3sccc3n2)cc1` has pIC50 that meets 6 or exceeds it?
# output FALSE

# input Could you please find out whether `CNC(=O)Nc1ccc(-c2nc(N3CC4CCC(C3)O4)c3cnn(C4COCOC4)c3n2)cc1` has pIC50 that meets 6 or exceeds it?
# output FALSE

----------
# System under test: PI3K (Homo sapiens)
# Construct: PI3 Kinase γ IC50; other: PI3 Kinase γ; other: PI3 Kinase γ isoform, fluorescence polarization
# Test details: Fluorescence polarization assay for PI3K
# Type: biochemical
# Run conditions: PI3 Kinase γ; read-out: PI3 Kinase γ IC50
Property name: pIC50
Scale for pIC50: -log10 of concentration given in mol/L; no unit attached.

Record smiles: CCn1ncc2c(N3CC4CCC(C3)O4)nc(-c3ccc(NC(=O)Nc4ccc(C#N)cc4)cc3)nc21
pIC50: 5.52
--
Record smiles: COC(=O)Nc1ccc(-c2nc(N3CC4CCC(C3)O4)c3cnn(C(C)C)c3n2)cc1
pIC50: 5.42
--
Record smiles: O=C(Nc1ccc(-c2nc(N3CC4CCC(C3)O4)c3cnn(CCO)c3n2)cc1)Nc1ccc(N2CCOCC2)nc1
pIC50: 4.93

For the next question, use this molecule.
# input // pIC50 lookup, key: `O=C(Nc1ccc(OCCO)cc1)Nc1ccc(-c2nc(N3CC4CCC(C3)O4)c3cnn(CC(F)(F)F)c3n2)cc1`
# output 4.98
